Just for reference, patent US7294637B2 is where these values come from.

measured.target: dopamine transporter (Homo sapiens, UniProt Q01959)
Sequence (Q01959 whole entry): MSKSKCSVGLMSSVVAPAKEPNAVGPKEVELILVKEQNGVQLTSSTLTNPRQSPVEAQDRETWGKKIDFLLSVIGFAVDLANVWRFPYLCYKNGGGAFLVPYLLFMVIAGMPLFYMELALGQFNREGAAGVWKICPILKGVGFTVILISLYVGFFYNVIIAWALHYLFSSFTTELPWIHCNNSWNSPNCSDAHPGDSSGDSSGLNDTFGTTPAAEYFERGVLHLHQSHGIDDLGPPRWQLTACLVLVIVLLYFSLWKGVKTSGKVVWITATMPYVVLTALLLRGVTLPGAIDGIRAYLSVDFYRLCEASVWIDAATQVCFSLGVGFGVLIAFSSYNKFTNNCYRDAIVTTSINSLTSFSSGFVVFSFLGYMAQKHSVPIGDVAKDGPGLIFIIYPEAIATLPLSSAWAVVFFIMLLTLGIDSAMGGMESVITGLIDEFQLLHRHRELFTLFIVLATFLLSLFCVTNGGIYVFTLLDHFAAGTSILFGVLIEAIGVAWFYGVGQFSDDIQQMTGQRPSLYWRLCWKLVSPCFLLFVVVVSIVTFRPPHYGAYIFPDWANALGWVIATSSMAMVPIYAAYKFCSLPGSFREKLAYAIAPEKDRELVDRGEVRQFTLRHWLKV
experiment.notes: DA uptake: displacement of dopamine ligands in vitro (methods of Gu et al.)
conditions: DA Uptake, Uptake Profile (IC50, nM), displacement of dopamine ligands in vitro
observed.property: IC50

// FC(F)(F)c1ccc(CCC2CCCN(CC3(c4ccc(Cl)cc4)CCC3)C2)cc1 (centres unmarked) : IC50 value = < 1000 nM

// `FC(F)(F)c1ccc(COC[C@@H]2CCCN(CC3(c4ccc(Cl)cc4)CCC3)C2)cc1` : IC50 value = < 100 nM

// COc1ccccc1C1(C(O)CN2CCCC(COc3ccc(C(F)(F)F)cc3)C2)CCC1 (centres unmarked) : IC50 value = < 10 nM

// `Clc1ccc(C2(CN3CCC[C@@H](COc4ccc5c(c4)OCO5)C3)CCC2)cc1` : IC50 value = < 100 nM

// OC(CN1CCCC(COc2ccc(C(F)(F)F)cc2)C1)C1(c2ccccc2OC(F)(F)F)CCC1 (single isomer, unassigned) [compound 224] : IC50 value = > 1000 nM

// Clc1ccc(C2(CN3CCCC(CCc4ccccc4)C3)CCC2)cc1 (centres unmarked) : IC50 value = < 1000 nM

// CNC(CN1CCC[C@@H](CCc2ccccc2)C1)c1ccc(Cl)cc1 (some centres unmarked) : IC50 value = < 1000 nM

// `O[C@@H](CN1CCC[C@@H](COc2ccc(C(F)(F)F)cc2)C1)C1(c2ccc(Cl)cc2)CCC1` : IC50 value = < 10 nM
